Cited source: patent US20120039802A1

molecular target: T1, cMet-Fc fusion protein (extracellular domain of the cMet receptor expressed as an Fc-fusion protein) (human, UniProt P08581 25-932); test: phage ELISA, cMet-Fc vs TRAIL-Fc
T1 construct: extracellular domain; also called soluble cMet-Fc-fusion protein; soluble cMet receptor; not shown: Fc part
T1 sequence (P08581 25-932): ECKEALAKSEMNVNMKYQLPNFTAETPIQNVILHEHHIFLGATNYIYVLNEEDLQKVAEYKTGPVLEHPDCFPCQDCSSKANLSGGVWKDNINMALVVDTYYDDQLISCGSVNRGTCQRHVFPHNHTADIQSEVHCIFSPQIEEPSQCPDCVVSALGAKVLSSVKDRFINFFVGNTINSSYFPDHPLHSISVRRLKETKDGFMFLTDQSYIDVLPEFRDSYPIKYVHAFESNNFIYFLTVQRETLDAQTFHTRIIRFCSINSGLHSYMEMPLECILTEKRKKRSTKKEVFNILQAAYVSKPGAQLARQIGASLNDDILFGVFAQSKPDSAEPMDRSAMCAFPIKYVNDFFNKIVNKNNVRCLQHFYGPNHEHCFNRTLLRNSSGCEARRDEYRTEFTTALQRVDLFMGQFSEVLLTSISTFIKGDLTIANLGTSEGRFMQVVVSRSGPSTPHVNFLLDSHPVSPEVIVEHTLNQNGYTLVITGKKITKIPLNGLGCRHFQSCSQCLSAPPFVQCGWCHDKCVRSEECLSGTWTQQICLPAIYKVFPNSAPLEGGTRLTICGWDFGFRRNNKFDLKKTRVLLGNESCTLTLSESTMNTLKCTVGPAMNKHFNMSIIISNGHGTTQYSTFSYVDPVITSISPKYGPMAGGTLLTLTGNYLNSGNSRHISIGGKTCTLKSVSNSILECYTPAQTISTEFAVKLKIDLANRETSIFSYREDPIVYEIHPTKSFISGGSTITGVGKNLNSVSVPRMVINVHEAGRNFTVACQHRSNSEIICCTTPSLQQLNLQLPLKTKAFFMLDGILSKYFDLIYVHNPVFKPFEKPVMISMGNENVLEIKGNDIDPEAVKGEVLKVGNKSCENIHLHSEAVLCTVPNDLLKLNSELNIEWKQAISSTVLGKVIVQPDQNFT
Ends that are not written are not given here.
Class assignment keyed on Protein ELISA (fold over background), ranges zone 1 (below 4 fold), zone 2 (4 fold to below 10 fold), zone 3 (10 fold or more)

Example entries begin here.
Which class does AGYTSCVGPPSFECTPYGT [323-A11 peptide-displaying phage (SEQ ID NO: 059)] fall in?
zone 3

Which class does GDPDECQLNRETFEVWCPWHDP [547-C09 peptide-displaying phage (SEQ ID NO: 401)] fall in?
zone 2

Which class does AGPYSCHSESHDCKLMGT [465-C01 peptide-displaying phage (SEQ ID NO: 032)] fall in?
zone 1

Which class does GDASMCYDGLALRWDQCWPHDP [531-E11 peptide-displaying phage (SEQ ID NO: 404)] fall in?
zone 1

Which class does AGAFFCSGPPTFMCSLYGT [550-G07 peptide-displaying phage (SEQ ID NO: 098)] fall in?
zone 2

Continuing:
Which class does AGDWICHGPPMFECEWVGT [547-H07 peptide-displaying phage (SEQ ID NO: 058)] fall in?
zone 3

Which class does AGMTLCAGPPTFECYEVGT [552-F02 peptide-displaying phage (SEQ ID NO: 092)] fall in?
zone 3

Which class does AGQAVCEWGPFWCQMQGT [470-A02 peptide-displaying phage (SEQ ID NO: 031)] fall in?
zone 1

Which class does GSLIFCPYGECMMYAP [470-E11 peptide-displaying phage (SEQ ID NO: 005)] fall in?
zone 1

Which class does AGSIQCVGPPSFECTPYGT [335-D11 peptide-displaying phage (SEQ ID NO: 074)] fall in?
zone 2

Which class does AGEWWCHGPPEFLCYWTGT [331-F01 peptide-displaying phage (SEQ ID NO: 072)] fall in?
zone 3

Which class does AGQFYCSGPPTFQCIMIGT (not fully specified (bridges); cysteine pairing not given here) [550-F11 peptide-displaying phage (SEQ ID NO: 089)] fall in?
zone 3

Which class does AGYFECKGPPTFECWLSGT [333-H03 peptide-displaying phage (SEQ ID NO: 060)] fall in?
zone 2
